protocol: Metabolic stability in rat liver microsomes assessed as oxidation rate after 1 hr in presence of NADPH
Format: ADME, Microsome
measure.name: remaining at 1 h (%)
State just the number; it will be interpreted in %.

# remaining at 1 h of CC(=O)N1C[C@@H](F)C[C@H]1c1nc(C(=O)NCc2ccc(F)cc2)c(O)c(=O)n1C = 40

====

Test system: Human immunodeficiency virus 1
protocol: Antiviral activity against HIV1 3B infected in human MT4 cells assessed as inhibition of viral infections in presence of 10% fetal bovine serum
Type: functional
test.settings: Human immunodeficiency virus 1, 3B, read-out: CIC95
Each entry below carries its reported IC95.
Report as a plain number; the unit µM is understood.

Consider the worked cases shown below.
                            chemical_string  measure_name  experimental_result
0  COC(=O)N1C[C@@H](F)C[C@H]1c1nc(C(=O)NCc2ccc(F)cc2)c(O)c(=O)n1C          IC95                0.031
1  CN(C)C(=O)N1C[C@@H](F)C[C@H]1c1nc(C(=O)NCc2ccc(F)cc2)c(O)c(=O)n1C          IC95                0.125

The reported value for CN(C)S(=O)(=O)N1C[C@@H](F)C[C@H]1c1nc(C(=O)NCc2ccc(F)cc2)c(O)c(=O)n1C in terms of IC95 is 0.031

Quick note, IC95 for COC(=O)N1C[C@@H](F)C[C@H]1c1nc(C(=O)NCc2ccc(C)c(Cl)c2)c(O)c(=O)n1C landed at 0.016

Data credit: ChEMBL document CHEMBL1221284
